Give measured IC50 for each item. Keep answers brief.
# Test system: P70S6K (Thr389) phosphorylation (mTORC1) in MDA-MB-468 cells
# TEST DETAILS: Cell based AlphaLISA assay, mTOR kinase cellular assay: inhibition of p-P70S6K (T389) in MDA-MB-468 cells
# STATED CONDITIONS: Homo sapiens, read-out: pIC50 for Inhibition of mTORC1 and mTORC2 Substarte Phosphorylation p-P70S6K-(T389) (converted)

Quick one: IC50 of CO[C@H]1C[C@@H]2CC[C@@H](C)[C@@](O)(O2)C(=O)C(=O)N2CCCC[C@H]2C(=O)O[C@H]([C@H](C)C[C@@H]2CC[C@@H](OC(=O)NCc3cnc(N4CCN(c5ncc(C(=O)N6CCN(c7ncc(C(=O)N8CCc9cc(Cn%10nc(-c%11cnc%12[nH]ccc%12c%11)c%11c(N)ncnc%11%10)ccc9C8)cn7)CC6)cn5)CC4)nc3)[C@H](OC)C2)CC(=O)[C@H](C)/C=C(\C)[C@@H](O)[C@@H](OC)C(=O)[C@H](C)C[C@H](C)/C=C/C=C/C=C/1C ?
≤ 1 nM

Quick one: IC50 of CO[C@H]1C[C@@H]2CC[C@@H](C)[C@@](O)(O2)C(=O)C(=O)N2CCCC[C@H]2C(=O)O[C@H]([C@H](C)C[C@@H]2CC[C@@H](OC(=O)NCCOCCC(=O)NCc3cnc(N4CCN(C(=O)CCOCCN5CCN(c6ncc(C(=O)N7CCc8cc(Cn9nc(-c%10ccc%11oc(N)nc%11c%10)c%10c(N)ncnc%109)ccc8C7)cn6)CC5)CC4)nc3)[C@H](OC)C2)CC(=O)[C@H](C)/C=C(\C)[C@@H](O)[C@@H](OC)C(=O)[C@H](C)C[C@H](C)/C=C/C=C/C=C/1C ?
10 to 1000 nM

Quick one: IC50 of CO[C@H]1C[C@@H]2CC[C@@H](C)[C@@](O)(O2)C(=O)C(=O)N2CCCC[C@H]2C(=O)O[C@H]([C@H](C)C[C@@H]2CC[C@@H](OC(=O)NCCOCCOCCOCCOCCOCCC(=O)NCCOCCOCCOCCOCCOCCC(=O)N3CCc4cc(Cn5nc(-c6cnc7[nH]ccc7c6)c6c(N)ncnc65)ccc4C3)[C@H](OC)C2)CC(=O)[C@H](C)/C=C(\C)[C@@H](O)[C@@H](OC)C(=O)[C@H](C)C[C@H](C)/C=C/C=C/C=C/1C ?
≤ 1 nM

Quick one: IC50 of CO[C@H]1C[C@@H]2CC[C@@H](C)[C@@](O)(O2)C(=O)C(=O)N2CCCC[C@H]2C(=O)O[C@H]([C@H](C)C[C@@H]2CC[C@@H](OC(=O)N3CCc4nc(N5CCN(c6ncc(C(=O)N7CCN(c8ncc(C(=O)N9CCc%10cc(Cn%11nc(-c%12ccc%13oc(N)nc%13c%12)c%12c(N)ncnc%12%11)ccc%10C9)cn8)CC7)cn6)CC5)ncc4C3)[C@H](OC)C2)CC(=O)[C@H](C)/C=C(\C)[C@@H](O)[C@@H](OC)C(=O)[C@H](C)C[C@H](C)/C=C/C=C/C=C/1C ?
1 to 10 nM

Quick one: IC50 of CO[C@H]1C[C@@H]2CC[C@@H](C)[C@@](O)(O2)C(=O)C(=O)N2CCCC[C@H]2C(=O)O[C@H]([C@H](C)C[C@@H]2CC[C@@H](OC(=O)NCc3cnc(N4CCN(c5ncc(C(=O)NCCOCCOCCOCCOCCC(=O)N6CCc7cc(Cn8nc(-c9ccc%10oc(N)nc%10c9)c9c(N)ncnc98)ccc7C6)cn5)CC4)nc3)[C@H](OC)C2)CC(=O)[C@H](C)/C=C(\C)[C@@H](O)[C@@H](OC)C(=O)[C@H](C)C[C@H](C)/C=C/C=C/C=C/1C ?
≤ 1 nM

Quick one: IC50 of CO[C@H]1C[C@@H]2CC[C@@H](C)[C@@](O)(O2)C(=O)C(=O)N2CCCC[C@H]2C(=O)O[C@H]([C@H](C)C[C@@H]2CC[C@@H](OC(=O)NCCOCCOCCOCCOCCOCCOCCOCCOCCC(=O)N3CCc4cc(Cn5nc(-c6ccc7oc(N)nc7c6)c6c(N)ncnc65)ccc4C3)[C@H](OC)C2)CC(=O)[C@H](C)/C=C(\C)[C@@H](O)[C@@H](OC)C(=O)[C@H](C)C[C@H](C)/C=C/C=C/C=C/1C ?
≤ 1 nM

Quick one: IC50 of CO[C@H]1C[C@@H]2CC[C@@H](C)[C@@](O)(O2)C(=O)C(=O)N2CCCC[C@H]2C(=O)O[C@H]([C@H](C)C[C@@H]2CC[C@@H](OC(=O)NCc3cnc(N4CCN(c5ncc(C(=O)NCCOCCOCCOCCOCCC(=O)NCCCCn6nc(-c7cnc8[nH]ccc8c7)c7c(N)ncnc76)cn5)CC4)nc3)[C@H](OC)C2)CC(=O)[C@H](C)/C=C(\C)[C@@H](O)[C@@H](OC)C(=O)[C@H](C)C[C@H](C)/C=C/C=C/C=C/1C ?
≤ 1 nM

Quick one: IC50 of CO[C@H]1C[C@@H]2CC[C@@H](C)[C@@](O)(O2)C(=O)C(=O)N2CCCC[C@H]2C(=O)O[C@H]([C@H](C)C[C@@H]2CC[C@@H](OC(=O)NCc3cnc(N4CCN(C(=O)CCOCCN5CCN(c6ncc(C(=O)NCCOCCC(=O)N7CCc8cc(Cn9nc(-c%10ccc%11oc(N)nc%11c%10)c%10c(N)ncnc%109)ccc8C7)cn6)CC5)CC4)nc3)[C@H](OC)C2)C[C@@H](OC)[C@H](C)/C=C(\C)[C@@H](O)[C@@H](OC)C(=O)[C@H](C)C[C@H](C)/C=C/C=C/C=C/1C ?
≤ 1 nM

Quick one: IC50 of CO[C@H]1C[C@@H]2CC[C@@H](C)[C@@](O)(O2)C(=O)C(=O)N2CCCC[C@H]2C(=O)O[C@H]([C@H](C)C[C@@H]2CC[C@@H](OC(=O)N3CCc4nc(N5CCN(c6ncc(C(=O)NCCOCCOCCOCCOCCC(=O)N7CCc8cc(Cn9nc(-c%10ccc%11oc(N)nc%11c%10)c%10c(N)ncnc%109)ccc8C7)cn6)CC5)ncc4C3)[C@H](OC)C2)CC(=O)[C@H](C)/C=C(\C)[C@@H](O)[C@@H](OC)C(=O)[C@H](C)C[C@H](C)/C=C/C=C/C=C/1C ?
≤ 1 nM
